# Test system: MCF7
# RUN_DESCRIPTION: Antiproliferative activity against human MCF7 cells assessed as cell growth inhibition incubated for 72 hrs by MTT assay
# CONDITION_CONTEXT: MCF7, 72 h
ENDPOINT_LABEL: IC50 (µM)
Numbers only; they are read as µM.

So the reported IC50 for "CC/C(=C(\c1ccccc1)c1ccc(OCCN(C)C)cc1)c1ccccc1" , on MCF7, turned out to be 12.6
